Entries and their pest or weed control at 0.5 µg/mL
# System: Plutella xylostella
# experiment: Insecticidal activity against Plutella xylostella (Airbrush spray on cabbage leaf discs)
# Format: in vivo
# study_conditions: Plutella xylostella, foliar, 72 h, read-out: Fatality rate (%, 3 d after administration) 0.5 mg/L, Table 73, 0.5 mg/L, 3 d after administration
Respond with the bare value in %.

molecule	pest or weed control at 0.5 µg/mL / %
N#CCN(C(=O)c1ccccc1)c1cccc(C(=O)N(CC#N)c2c(Br)cc(C(F)(C(F)(F)F)C(F)(F)F)cc2Br)c1F [Compound 58.321]	98
N#CCN(C(=O)c1cccc(NC(=O)c2ccccc2)c1F)c1c(Br)cc(C(F)(C(F)(F)F)C(F)(F)F)cc1Br [Compound 16.321]	100

Look up pest or weed control at 0.5 µg/mL of CN(C(=O)c1ccccc1)c1cccc(C(=O)N(CC#N)c2c(Br)cc(C(F)(C(F)(F)F)C(F)(F)F)cc2Br)c1F [Compound 30.321] and report it.
100

Look up pest or weed control at 0.5 µg/mL of N#CCN(C(=O)c1ccccc1)c1cccc(C(=O)Nc2c(Br)cc(C(F)(C(F)(F)F)C(F)(F)F)cc2Br)c1F [Compound 2.321] and report it.
100

---

# System: Plutella xylostella
# experiment: Insecticidal activity against Plutella xylostella (Airbrush spray on cabbage leaf discs)
# Type: in vivo
# study_conditions: Plutella xylostella, foliar, 72 h, read-out: fatality rate against Plutella xylostella, 1 mg/L, 3 d after administration
readout: pest or weed control at 1 µg/mL

compound_smiles	assayed_system	value_reported
N#CCN(C(=O)c1ccccc1)c1cccc(C(=O)Nc2c(Cl)cc(C(F)(C(F)(F)F)C(F)(F)F)cc2Cl)c1F	Plutella xylostella	≥ 90%
N#CCN(C(=O)c1ccccc1)c1cccc(C(=O)Nc2c(Cl)cc(C(F)(C(F)(F)F)C(F)(F)F)cc2Br)c1F	Plutella xylostella	≥ 90%

Look up pest or weed control at 1 µg/mL of `N#CCN(C(=O)c1ccccc1)c1cccc(C(=O)N(CC#N)c2c(Br)cc(C(F)(C(F)(F)F)C(F)(F)F)cc2Br)c1F` and report it.
≥ 90%

---

# Test system: Plutella xylostella
# experiment: Insecticidal activity against Plutella xylostella (Airbrush spray on cabbage leaf discs)
# Type: in vivo
# study_conditions: Plutella xylostella, foliar, 72 h, read-out: fatality rate against Plutella xylostella, 1 mg/L, 3 d after administration
readout: pest or weed control at 1 µg/mL

compound_smiles	assayed_system	pest or weed control at 1 µg/mL
N#CCN(C(=O)c1cccc(NC(=O)c2ccccc2)c1F)c1c(Br)cc(C(F)(C(F)(F)F)C(F)(F)F)cc1Br	Plutella xylostella	≥ 90%
CN(C(=O)c1ccccc1)c1cccc(C(=O)N(CC#N)c2c(Br)cc(C(F)(C(F)(F)F)C(F)(F)F)cc2Br)c1F	Plutella xylostella	≥ 90%

Pending compound:
Look up pest or weed control at 1 µg/mL of `Cc1cc(C(F)(C(F)(F)F)C(F)(F)F)cc(Br)c1NC(=O)c1cccc(N(CC#N)C(=O)c2ccccc2)c1F` and report it.
≥ 90%

---

# System: Plutella xylostella
# experiment: Insecticidal activity against Plutella xylostella (Airbrush spray on cabbage leaf discs)
# Format: in vivo
# study_conditions: Plutella xylostella, foliar, 72 h; Table 71, 10 mg/L, 3 d after administration; read-out: Fatality rate (%, 3 d after administration) 10 mg/L
Entries and their pest or weed control at 10 µg/mL
Respond with the bare value in %.

Worked cases, pest or weed control at 10 µg/mL given:
compound	assayed_system	readout	value_reported
N#CCN(C(=O)c1ccc(C(F)(F)F)cc1)c1cccc(C(=O)Nc2c(Br)cc(C(F)(C(F)(F)F)C(F)(F)F)cc2Br)c1F	Plutella xylostella	pest or weed control at 10 µg/mL	100
COCN(C(=O)c1ccccc1)c1cccc(C(=O)Nc2c(C)cc(C(F)(C(F)(F)F)C(F)(F)F)cc2C)c1 [CK2, reference compound]	Plutella xylostella	pest or weed control at 10 µg/mL	0
Cc1cc(C(F)(C(F)(F)F)C(F)(F)F)cc(C)c1NC(=O)c1cccc(N(C#N)C(=O)c2ccccc2)c1 [CK3, reference compound]	Plutella xylostella	pest or weed control at 10 µg/mL	0
N#CCN(C(=O)c1cccc(NC(=O)c2ccccc2)c1F)c1c(Cl)cc(C(F)(C(F)(F)F)C(F)(F)F)cc1Br	Plutella xylostella	pest or weed control at 10 µg/mL	100
Cc1cc(C(F)(C(F)(F)F)C(F)(F)F)cc(Br)c1N(CC#N)C(=O)c1cccc(NC(=O)c2ccccc2)c1F	Plutella xylostella	pest or weed control at 10 µg/mL	100

Pending compound:
Look up pest or weed control at 10 µg/mL of `N#CCN(C(=O)c1cccc(NC(=O)c2ccccc2)c1F)c1c(Cl)cc(C(F)(C(F)(F)F)C(F)(F)F)cc1Cl` and report it.
100
